# Target system: Cytochrome P450 2C9 (Homo sapiens, UniProt P11712)
# Sequence (P11712 whole entry): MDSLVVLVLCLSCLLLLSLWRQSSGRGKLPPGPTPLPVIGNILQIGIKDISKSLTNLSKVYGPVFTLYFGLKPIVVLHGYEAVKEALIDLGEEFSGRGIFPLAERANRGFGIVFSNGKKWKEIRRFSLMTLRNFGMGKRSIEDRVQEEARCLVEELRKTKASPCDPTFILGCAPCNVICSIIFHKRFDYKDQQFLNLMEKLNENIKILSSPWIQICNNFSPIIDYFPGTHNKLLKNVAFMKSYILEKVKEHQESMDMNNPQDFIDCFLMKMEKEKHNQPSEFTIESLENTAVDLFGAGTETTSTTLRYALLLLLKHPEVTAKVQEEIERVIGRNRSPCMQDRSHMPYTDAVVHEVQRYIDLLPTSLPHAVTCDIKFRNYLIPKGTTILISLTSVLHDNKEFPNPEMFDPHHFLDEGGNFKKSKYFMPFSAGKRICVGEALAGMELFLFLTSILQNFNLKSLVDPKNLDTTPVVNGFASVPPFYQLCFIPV
Please go through the items and note down their AC50.

Sample answers from the record:
CCCSc1cc(N2CCCC2)nc(-c2ccccc2)n1    2 µM (inconclusive)
CCCCOc1ccccc1N    39.8 µM (inconclusive)
Nc1nc(SCc2ccccc2)c2ncn(Cc3ccccc3)c2n1    3.16 µM (inconclusive)
COc1ccc(CNC(=O)CN(CC2CCCO2)C(=O)CNS(=O)(=O)c2ccccc2)cc1 (stereo unspecified)    22.4 µM (inconclusive)
CCOc1ccc(/C=C2\C(=O)c3ccccc3OC2c2ccccc2)cc1 (stereo unspecified)    10 µM (inconclusive)

Any idea what AC50 was measured for CN(C)N1C(N)=C(C#N)C(c2cccnc2)C2=C1CC(C)(C)CC2=O (stereo unspecified) ?
0.0224 µM (inconclusive)

----------
# Target system: Voltage-dependent T-type calcium channel subunit alpha-1H (Homo sapiens, UniProt O95180);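 note: channel activity triggered by adding a high calcium stimulation buffer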
# Sequence (O95180 whole entry): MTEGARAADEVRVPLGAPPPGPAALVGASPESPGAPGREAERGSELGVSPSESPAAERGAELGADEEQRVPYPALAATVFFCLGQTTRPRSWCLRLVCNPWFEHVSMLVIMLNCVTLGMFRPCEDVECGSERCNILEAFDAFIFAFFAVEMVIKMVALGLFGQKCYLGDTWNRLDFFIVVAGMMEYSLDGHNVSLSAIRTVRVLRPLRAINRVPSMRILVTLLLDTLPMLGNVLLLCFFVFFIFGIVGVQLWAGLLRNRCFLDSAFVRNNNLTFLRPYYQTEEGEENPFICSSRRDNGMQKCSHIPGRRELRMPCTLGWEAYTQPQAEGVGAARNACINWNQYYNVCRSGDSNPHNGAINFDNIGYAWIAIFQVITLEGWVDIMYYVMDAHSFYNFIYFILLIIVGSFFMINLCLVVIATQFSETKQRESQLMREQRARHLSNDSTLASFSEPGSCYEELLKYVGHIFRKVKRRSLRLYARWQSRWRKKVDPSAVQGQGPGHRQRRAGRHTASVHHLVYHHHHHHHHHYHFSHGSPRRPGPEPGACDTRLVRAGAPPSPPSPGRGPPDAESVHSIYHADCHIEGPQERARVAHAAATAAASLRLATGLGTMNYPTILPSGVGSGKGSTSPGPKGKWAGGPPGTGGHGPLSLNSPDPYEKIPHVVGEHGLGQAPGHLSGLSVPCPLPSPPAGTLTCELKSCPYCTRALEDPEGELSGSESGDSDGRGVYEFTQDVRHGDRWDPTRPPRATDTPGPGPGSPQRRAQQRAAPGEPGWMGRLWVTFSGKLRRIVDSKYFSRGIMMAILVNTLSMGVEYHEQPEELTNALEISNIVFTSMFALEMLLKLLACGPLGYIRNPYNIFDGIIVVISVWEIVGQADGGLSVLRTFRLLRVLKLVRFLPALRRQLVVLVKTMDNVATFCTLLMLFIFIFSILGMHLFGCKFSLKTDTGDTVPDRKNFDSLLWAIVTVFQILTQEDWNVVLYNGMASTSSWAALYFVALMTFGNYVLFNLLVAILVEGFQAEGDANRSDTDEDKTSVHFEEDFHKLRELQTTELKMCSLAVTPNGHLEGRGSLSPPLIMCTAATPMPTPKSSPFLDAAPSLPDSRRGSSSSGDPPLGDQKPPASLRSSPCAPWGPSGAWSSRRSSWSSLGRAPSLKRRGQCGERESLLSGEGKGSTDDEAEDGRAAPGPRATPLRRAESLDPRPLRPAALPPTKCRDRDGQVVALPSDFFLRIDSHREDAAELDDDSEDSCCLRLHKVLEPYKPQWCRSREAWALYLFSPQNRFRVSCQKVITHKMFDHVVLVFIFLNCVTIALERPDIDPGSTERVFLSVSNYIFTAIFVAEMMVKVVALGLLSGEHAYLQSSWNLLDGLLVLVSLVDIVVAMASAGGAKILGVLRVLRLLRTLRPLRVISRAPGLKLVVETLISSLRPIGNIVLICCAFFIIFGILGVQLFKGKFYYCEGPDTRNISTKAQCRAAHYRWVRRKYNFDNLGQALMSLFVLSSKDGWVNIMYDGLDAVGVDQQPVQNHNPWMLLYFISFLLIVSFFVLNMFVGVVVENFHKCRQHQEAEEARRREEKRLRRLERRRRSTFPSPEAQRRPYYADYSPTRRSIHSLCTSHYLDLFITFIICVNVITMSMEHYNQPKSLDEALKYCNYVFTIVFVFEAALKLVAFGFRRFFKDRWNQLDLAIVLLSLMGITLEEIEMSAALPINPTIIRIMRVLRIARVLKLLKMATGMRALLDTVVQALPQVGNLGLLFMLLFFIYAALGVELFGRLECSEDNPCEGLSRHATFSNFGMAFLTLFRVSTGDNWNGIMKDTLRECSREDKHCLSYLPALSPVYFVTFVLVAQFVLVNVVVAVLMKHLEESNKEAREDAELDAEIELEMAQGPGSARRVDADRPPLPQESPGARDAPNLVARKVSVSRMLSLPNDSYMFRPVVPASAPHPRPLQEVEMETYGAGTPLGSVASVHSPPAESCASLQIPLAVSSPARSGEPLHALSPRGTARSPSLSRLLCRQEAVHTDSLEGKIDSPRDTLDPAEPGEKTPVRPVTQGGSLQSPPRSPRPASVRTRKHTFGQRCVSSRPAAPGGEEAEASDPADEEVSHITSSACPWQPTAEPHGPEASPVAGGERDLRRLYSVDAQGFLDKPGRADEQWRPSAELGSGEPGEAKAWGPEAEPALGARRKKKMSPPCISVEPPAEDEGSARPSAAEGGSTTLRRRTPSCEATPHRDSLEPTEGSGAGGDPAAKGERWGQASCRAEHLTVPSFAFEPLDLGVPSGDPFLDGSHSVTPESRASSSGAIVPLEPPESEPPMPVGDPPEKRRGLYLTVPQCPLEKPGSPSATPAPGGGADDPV
# Assay type: functional
The source made the active and inactive calls.
So I've got a bunch of compounds here, and I need their EC50 values.

Cc1ccccc1NC(=O)c1ccc(CN2CCc3ccccc3C2)cc1    2.28 µM (active)

The following compounds each have a reported value; give each one's EC50.
1. Cc1nn(Cc2ccccc2)c(C)c1NC(=O)c1cc(-c2ccco2)on1
2. O=C(CN1CCN(c2ccccn2)CC1)N(c1ccccc1)c1ccc2ccccc2c1

["9.33 µM (active)", "6.52 µM (active)"]

Please supply EC50 for each of the following items, keeping them in order.
1. O/N=C(\c1ccc(Cl)cc1Cl)c1ncc(C(F)(F)F)cc1Cl
2. COC(=O)CCn1nnc(-c2ccc(C(C)C)cc2)n1

1: 2.11 µM (active); 2: 16.2 µM (active)

----------
# Target system: UniProt P9WHJ3
# Experiment summary: Fluorescence Cell-Free Homogeneous Dose Retest to Identify Inhibitors of RecA-Intein Splicing Activity. [Related pubchem assays (depositor defined):AID2097, AID2223, AID489010, AID492950]
# Type: functional
The source made the active and inactive calls.
Thanks in advance; please answer with one of these: true (1) for active, false (0) for inactive

Past entries and their recorded results:
CCc1cc(C(=O)c2ccc(C)cc2)c(NC(=O)CCl)s1    true (1)
O=C(CSC1=NCCS1)Nc1ccc(S(=O)(=O)NC2CCCCC2)cc1    true (1)

Each molecule tested received a call. Report the one for COC(=O)Cc1n[nH]c2c1C(c1ccc(O)c(OC)c1)C(C#N)=C(N)O2 (stereo not given) .
true (1)

Try this molecule too: CC(C)(C)c1cc(C(c2cccnc2)N2CCN(CCO)CC2)cc(C(C)(C)C)c1O (stereo not given)
true (1)

Repeat with CCCc1n[nH]c2c1C(c1ccoc1)C(C#N)=C(N)O2 (stereo not given)
true (1)

Query `Cc1ccc([N+](=O)[O-])cc1S(=O)(=O)N(C(=O)c1ccncc1)c1ccc2oc3c(c2c1)CCCC3` next
true (1)

Try `O=C(COC(=O)c1ccc2c(c1[N+](=O)[O-])C(=O)c1ccccc1C2=O)NC1CC1` next.
true (1)

----------
# Experiment summary: inhibitors of intracellular T. cruzi replication, confirmation, NIH3T3 host cells, beta-gal luminescence (AID 2044);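 note: intracellular parasites grown in NIH/3T3 mouse fibroblasts as host cells; luminescent beta-galactosidase reporter signal from transgenic T. cruzi replicating inside host cells; inhibitors lower the luminescence signal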
# Format: functional, cell-based
The source made the active and inactive calls.
Recorded metric: EC50

Solved cases (4 shown):
CCOC(=O)c1cnc(-n2nc(C)cc2C)nc1NCc1ccc2c(c1)OCO2    2360 nM (active)
CCCCCCCCCCOC(=O)C[n+]1c(COc2ccccc2C)n(C)c2ccccc21    680 nM (active)
Cc1cccc(NC(S)=NC(NC(=O)OCc2ccccc2)C(Cl)(Cl)Cl)c1 (stereo not given)    3390 nM (active)
CCOc1ccccc1/N=C1\SC(CC(=O)Nc2ccc(OC)cc2OC)C(=O)N1CCC1=CCCCC1 (stereo not given)    1980 nM (active)

Fill in the blank: the reported EC50 of `CC(=O)/C(=N\Nc1ccc(Cl)cc1Cl)Sc1cccc2cccnc12` is ____.
289 nM (active)
